# ASSAY INFO: Solubility (Sol.) reported with the replicon assay
# STUDY CONDITIONS: Extended 8-pt Assay
ASSAY READOUT: Sol.

Reference set, count: 4
O=C(NO)[C@@H]1CCCC[C@H]1S(=O)(=O)CCc1ccccc1 [Example 5] = >320 µM
CC(C)(C)OC(=O)N1CCN(S(=O)(=O)c2ccc(Oc3ccccn3)cc2)[C@@H](C(=O)NO)C1 [Example 10] = >320 µM
O=C(NO)C1=C(SCCc2ccc(-c3ccccc3)cc2)CCCC1 [Example 1] = >320 µM
O=C(NO)C1CCCCN1S(=O)(=O)c1ccc(Sc2ccncc2)cc1 (centres unmarked) [Example 13] = >320 µM

# evaluate next
Ask: State the recorded Sol. for this entry: COC(=O)c1ccc(NC(=O)[C@H](CC(C)C)NC(=O)[C@@H](CC(=O)NO)c2ccccc2)cc1 [Example 8]
Result: <320 µM
